Quick reference: chromatographic logP of the listed items.
# assay comment: logP determination by HPLC (reversed-phase C18), acidic range
# Assay type: physicochemical
# recorded conditions: pH 2.3, C18, 43° C., 0.1% aqueous phosphoric acid/acetonitrile
Respond with the number and no other words.

molecule=Cc1occc1C(=O)Nc1ccccc1-c1cc(Cl)cc(Cl)c1 measured_number=3.9
molecule=CSc1ccc(-c2ccccc2NC(=O)c2ccoc2C)cc1 measured_number=3.63
molecule=Cc1occc1C(=O)Nc1ccccc1-c1ccc(OC(F)(F)F)cc1 measured_number=3.91
molecule=Cc1occc1C(=O)Nc1ccccc1-c1ccc(C(F)(F)F)cc1 measured_number=3.53
molecule=Cc1occc1C(=O)Nc1ccccc1-c1ccc(Cl)c(Cl)c1 measured_number=3.73

Sample Cc1occc1C(=O)Nc1ccccc1-c1ccc(F)c(F)c1 ; chromatographic logP observed: 3.22

Sample Cc1occc1C(=O)Nc1ccccc1-c1ccc(Br)cc1 ; chromatographic logP observed: 3.71

Sample Cc1occc1C(=O)Nc1ccccc1-c1ccc(F)c(Cl)c1 ; chromatographic logP observed: 3.46

Sample Cc1occc1C(=O)Nc1ccccc1-c1cccc(Cl)c1 ; chromatographic logP observed: 3.58

Sample Cc1occc1C(=O)Nc1ccccc1-c1ccc(Cl)c(F)c1 ; chromatographic logP observed: 3.43
